Collected kon values appear next to each entry.
biological target: Acetylcholinesterase (Homo sapiens, UniProt P22303); assay: Inhibition of recombinant human AChE; details: read-out: kon (M-1-s-1)
Sequence (P22303 whole entry): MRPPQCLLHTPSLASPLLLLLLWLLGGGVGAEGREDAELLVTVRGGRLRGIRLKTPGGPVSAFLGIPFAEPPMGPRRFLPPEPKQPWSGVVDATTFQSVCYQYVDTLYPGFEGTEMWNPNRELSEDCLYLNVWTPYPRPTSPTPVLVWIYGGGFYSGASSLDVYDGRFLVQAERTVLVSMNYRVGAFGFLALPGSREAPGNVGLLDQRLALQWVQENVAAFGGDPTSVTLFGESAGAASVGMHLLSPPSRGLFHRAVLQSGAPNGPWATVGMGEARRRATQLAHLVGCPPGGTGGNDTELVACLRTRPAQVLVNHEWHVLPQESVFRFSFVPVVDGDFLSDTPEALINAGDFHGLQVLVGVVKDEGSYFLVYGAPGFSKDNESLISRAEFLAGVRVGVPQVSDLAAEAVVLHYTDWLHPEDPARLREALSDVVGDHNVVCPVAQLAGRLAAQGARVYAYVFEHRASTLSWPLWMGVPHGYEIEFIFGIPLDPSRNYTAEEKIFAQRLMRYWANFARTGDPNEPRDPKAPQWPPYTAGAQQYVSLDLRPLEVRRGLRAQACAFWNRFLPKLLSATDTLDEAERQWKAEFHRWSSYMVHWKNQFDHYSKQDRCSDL
endpoint name: kon (M⁻¹ s⁻¹)

| molecule | endpoint name | unit of measure | reported measurement |
| --- | --- | --- | --- |
| CN(C)C(=O)n1oc(C2CC2)cc1=O | kon | M⁻¹ s⁻¹ | 1720 |
| CCCC(C)c1cc(=O)n(C(=O)N(C)CC)o1 (centres undefined) | kon | M⁻¹ s⁻¹ | 18000 |
| Cc1cc(OC(=O)N(C)C)no1 | kon | M⁻¹ s⁻¹ | 1.97 |
| CCC(CC)c1cc(OC(=O)N(C)C)no1 | kon | M⁻¹ s⁻¹ | 151 |
| CCC(C)n1cc(OC(=O)NC)cn1 (centres undefined) | kon | M⁻¹ s⁻¹ | 13400 |
| CN(C)C(=O)Oc1cc(C2CCCC2)on1 | kon | M⁻¹ s⁻¹ | 77 |
| CCCC(C)c1cc(=O)n(C(=O)N(C)C)o1 (centres undefined) | kon | M⁻¹ s⁻¹ | 51800 |
| CCCC(C)c1cc(OC(=O)N(C)CC)no1 (centres undefined) | kon | M⁻¹ s⁻¹ | 152 |
| CCC(C)Cc1cc(OC(=O)N(C)C)no1 (centres undefined) | kon | M⁻¹ s⁻¹ | 28.3 |
| CN(C)C(=O)Oc1cc(CC(C)(C)C)on1 | kon | M⁻¹ s⁻¹ | 7.33 |
| CNC(=O)Oc1cccc(C(C)(C)C)c1 | kon | M⁻¹ s⁻¹ | 2100 |
| CCC(CC)c1cc(=O)n(C(=O)N(C)C)o1 | kon | M⁻¹ s⁻¹ | 33200 |
| CCCC(C)c1cc(=O)n(C(=O)N2CCC2)o1 (centres undefined) | kon | M⁻¹ s⁻¹ | 31000 |
| CN(C)C(=O)n1oc(C2CCC2)cc1=O | kon | M⁻¹ s⁻¹ | 3880 |

* * *

biological target: Acetylcholinesterase (Homo sapiens, UniProt P22303); assay: Inhibition of recombinant human AChE; details: read-out: kon (M-1-s-1)
endpoint name: kon (M⁻¹ s⁻¹)

| compound | reported measurement |
| --- | --- |
| CN(C)C(=O)Oc1cc(CCC2CC2)on1 | 138 |
| CCCC(C)c1cc(=O)n(C(=O)N2CCOCC2)o1 (stereo unspecified) | 433 |
| CN(C)C(=O)n1oc(C2CCCC2)cc1=O | 11300 |
| CC(C)CCc1cc(OC(=O)N(C)C)no1 | 31.8 |
| CCCC(C)c1cc(OC(=O)N(C)C)no1 (stereo unspecified) | 848 |
| CC(C)Cc1cc(=O)n(C(=O)N(C)C)o1 | 515 |
| CN(C)C(=O)Oc1cc(C2CC2)on1 | 33.7 |
| CNC(=O)Oc1cccc2c1OC(C)(C)C2 | 7130 |
| CCC(C)c1cc(=O)n(C(=O)N(C)C)o1 (stereo unspecified) | 36200 |
| CNC(=O)Oc1cccc2c1OC(C)(C)O2 | 1850 |
| CN(C)C(=O)n1oc(CCC2CC2)cc1=O | 2400 |
| CN(C)C(=O)Oc1cc(CCC2CCC2)on1 | 121 |
| CCC(C)c1cc(OC(=O)N(C)C)no1 (stereo unspecified) | 1000 |
| CCCC(C)c1cc(=O)n(C(=O)N2CCCC2)o1 (stereo unspecified) | 6320 |
| CCCC(C)c1cc(OC(=O)N2CCCC2)no1 (stereo unspecified) | 27 |
| CC(C)c1cc(OC(=O)N(C)C)no1 | 74.3 |
